Target protein (sequence): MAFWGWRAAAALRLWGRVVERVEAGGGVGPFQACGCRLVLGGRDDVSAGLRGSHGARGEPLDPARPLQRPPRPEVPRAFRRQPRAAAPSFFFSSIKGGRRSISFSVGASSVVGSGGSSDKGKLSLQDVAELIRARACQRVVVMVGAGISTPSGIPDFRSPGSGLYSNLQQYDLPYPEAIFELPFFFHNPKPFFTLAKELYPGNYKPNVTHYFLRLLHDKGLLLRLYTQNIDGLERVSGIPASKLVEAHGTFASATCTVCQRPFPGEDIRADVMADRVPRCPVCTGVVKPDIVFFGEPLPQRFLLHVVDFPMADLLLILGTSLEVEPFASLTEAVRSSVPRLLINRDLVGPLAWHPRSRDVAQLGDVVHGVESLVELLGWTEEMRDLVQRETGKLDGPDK
pIC50: −log10 of the molar value.
RECORDED_ENDPOINT: pIC50

>>> result("Cn1cc(C2=C(c3cn(CCCSC(=N)N)c4ccccc34)C(=O)NC2=O)c2ccccc21 [BISINDOLYLMALEIMIDE IX]")
5.43

----------
target: NAD-dependent protein deacetylase sirtuin-1 (Homo sapiens) (UniProt Q96EB6); test: Inhibition of human recombinant N-terminally GST-tagged Sirt1 expressed in Escherichia coli using ZMAL as substrate at 50 uM after 4 hrs by homogeneous fluorescent deacetylase assay
Sequence (Q96EB6 whole entry): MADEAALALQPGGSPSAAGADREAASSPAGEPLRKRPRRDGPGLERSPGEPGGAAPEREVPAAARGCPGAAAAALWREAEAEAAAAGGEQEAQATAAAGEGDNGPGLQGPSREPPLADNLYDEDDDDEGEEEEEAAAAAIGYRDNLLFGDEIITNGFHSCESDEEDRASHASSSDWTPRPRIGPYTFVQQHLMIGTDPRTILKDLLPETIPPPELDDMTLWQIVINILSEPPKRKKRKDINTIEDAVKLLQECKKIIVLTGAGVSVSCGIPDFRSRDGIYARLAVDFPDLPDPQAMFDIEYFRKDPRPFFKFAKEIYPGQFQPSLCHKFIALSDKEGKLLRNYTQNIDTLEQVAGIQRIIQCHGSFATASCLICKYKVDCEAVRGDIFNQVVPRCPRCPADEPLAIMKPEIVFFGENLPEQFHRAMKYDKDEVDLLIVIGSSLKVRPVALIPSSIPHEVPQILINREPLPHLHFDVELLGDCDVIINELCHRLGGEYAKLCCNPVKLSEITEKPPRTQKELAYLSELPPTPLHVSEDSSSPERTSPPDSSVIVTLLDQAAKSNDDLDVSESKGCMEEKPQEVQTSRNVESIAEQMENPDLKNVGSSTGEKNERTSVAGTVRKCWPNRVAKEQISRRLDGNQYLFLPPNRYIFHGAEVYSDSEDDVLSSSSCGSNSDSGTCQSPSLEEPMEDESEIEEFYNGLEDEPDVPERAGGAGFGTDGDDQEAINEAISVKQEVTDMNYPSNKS
RECORDED_ENDPOINT: inhibition

>>> result("O=c1[nH]c2ccc(Cl)nc2[nH]1")
"< 10%"
>>> result("CC(C)(C)OC(=O)NCCCn1c(=S)[nH]c2cc([N+](=O)[O-])ccc21")
"10%"
>>> result("O=c1[nH]c2cc(C(F)(F)F)ccc2n1-c1ccc2c(c1)OCO2")
"< 10%"
>>> result("CC(C)n1c(=O)[nH]c2cc([N+](=O)[O-])ccc21")
"< 10%"
>>> result("O=[N+]([O-])c1cc(C(F)(F)F)ccc1Nc1ccc2c(c1)OCO2")
"18.8%"
>>> result("O=c1[nH]c2cc([N+](=O)[O-])c3ccccc3c2[nH]1")
"< 10%"
>>> result("COc1ccc(CNc2ccc([N+](=O)[O-])cc2N)c(OC)c1")
"14.1%"
>>> result("O=c1[nH]c2ccc3ccccc3c2[nH]1")
"10.6%"
>>> result("COc1ccc(Cn2c(=S)[nH]c3cc([N+](=O)[O-])ccc32)c(OC)c1")
"14.4%"
>>> result("COc1ccc(CNc2ccc([N+](=O)[O-])cc2[N+](=O)[O-])c(OC)c1")
"< 10%"
>>> result("O=c1[nH]c2cc([N+](=O)[O-])ccc2n1C1CCCCC1")
"< 10%"
>>> result("NCCCn1c(=S)[nH]c2cc([N+](=O)[O-])ccc21")
"< 10%"
>>> result("COc1ccc(Cn2c(=O)[nH]c3cc([N+](=O)[O-])ccc32)c(OC)c1")
"< 10%"

----------
compounds and their reported inhibition
Molecular target: UniProtKB Q8IXJ6
Sequence (whole entry): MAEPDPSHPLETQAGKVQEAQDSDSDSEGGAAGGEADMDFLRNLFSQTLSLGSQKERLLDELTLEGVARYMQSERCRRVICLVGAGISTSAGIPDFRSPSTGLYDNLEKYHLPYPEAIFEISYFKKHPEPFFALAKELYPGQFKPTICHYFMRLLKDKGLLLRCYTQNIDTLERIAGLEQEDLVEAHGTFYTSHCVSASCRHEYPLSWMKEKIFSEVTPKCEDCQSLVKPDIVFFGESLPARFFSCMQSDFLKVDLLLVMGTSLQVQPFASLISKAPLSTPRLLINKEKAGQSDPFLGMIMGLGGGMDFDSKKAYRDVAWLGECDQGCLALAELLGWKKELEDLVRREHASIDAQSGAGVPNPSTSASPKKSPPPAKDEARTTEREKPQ
Experiment: Inhibition of human N-terminally His6-tagged Sirt2 using ZMAL as substrate at 50 uM after 4 hrs by homogeneous fluorescent deacetylase assay
RECORDED_ENDPOINT: inhibition (%)

>>> result("COc1ccc(CNc2ccc([N+](=O)[O-])cc2[N+](=O)[O-])c(OC)c1")
14.8
>>> result("O=c1[nH]c2cc(C(F)(F)F)ccc2n1-c1ccc2c(c1)OCO2")
16.5
>>> result("COc1ccc(Cn2c(=S)[nH]c3cc([N+](=O)[O-])ccc32)c(OC)c1")
43.1
>>> result("O=[N+]([O-])c1cc(C(F)(F)F)ccc1Nc1ccc2c(c1)OCO2")
41.4
>>> result("O=c1[nH]c2ccc3ccccc3c2[nH]1")
46.7
